// provenance: ChEMBL document CHEMBL1961873

STUDY_SYSTEM: Proto-oncogene tyrosine-protein kinase receptor Ret (Homo sapiens) (UniProt P07949);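 note: each listed value is an averaged inhibition figure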
Sequence (P07949 whole entry): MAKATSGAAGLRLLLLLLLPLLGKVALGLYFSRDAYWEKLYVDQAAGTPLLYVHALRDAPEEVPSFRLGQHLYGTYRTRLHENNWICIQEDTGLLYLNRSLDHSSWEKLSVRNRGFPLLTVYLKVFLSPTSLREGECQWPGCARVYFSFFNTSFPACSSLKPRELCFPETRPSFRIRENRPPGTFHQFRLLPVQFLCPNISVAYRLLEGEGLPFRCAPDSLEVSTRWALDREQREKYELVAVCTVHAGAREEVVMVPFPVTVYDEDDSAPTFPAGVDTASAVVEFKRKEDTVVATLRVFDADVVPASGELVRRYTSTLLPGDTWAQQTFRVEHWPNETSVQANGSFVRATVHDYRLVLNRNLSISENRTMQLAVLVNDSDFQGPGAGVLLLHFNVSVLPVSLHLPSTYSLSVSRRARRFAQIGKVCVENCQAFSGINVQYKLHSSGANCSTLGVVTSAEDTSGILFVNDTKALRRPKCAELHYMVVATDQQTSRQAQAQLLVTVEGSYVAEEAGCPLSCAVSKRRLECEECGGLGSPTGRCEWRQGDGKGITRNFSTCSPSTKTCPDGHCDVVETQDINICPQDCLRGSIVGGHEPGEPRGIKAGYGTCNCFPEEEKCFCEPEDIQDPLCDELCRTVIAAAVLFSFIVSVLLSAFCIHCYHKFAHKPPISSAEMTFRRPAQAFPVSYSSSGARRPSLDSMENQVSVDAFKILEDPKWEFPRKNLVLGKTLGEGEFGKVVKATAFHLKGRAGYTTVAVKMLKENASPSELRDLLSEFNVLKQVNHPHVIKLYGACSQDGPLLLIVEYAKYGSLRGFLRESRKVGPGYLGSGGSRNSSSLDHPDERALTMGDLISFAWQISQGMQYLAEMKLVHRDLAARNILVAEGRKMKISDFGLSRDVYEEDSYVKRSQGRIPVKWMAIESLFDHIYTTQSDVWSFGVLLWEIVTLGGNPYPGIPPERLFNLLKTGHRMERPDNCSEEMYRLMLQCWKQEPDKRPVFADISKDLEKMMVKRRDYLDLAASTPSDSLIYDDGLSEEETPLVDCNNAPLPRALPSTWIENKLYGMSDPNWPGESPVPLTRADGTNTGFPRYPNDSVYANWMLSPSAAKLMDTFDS
CONDITIONS_USED: at 1 µM
OBSERVABLE: inhibition (%)
# number only, unit % dropped from output

The cases that follow already have their inhibition on record.
MOLECULE: CCN1CCC(C(=O)Nc2n[nH]c3nnc(-c4cccc(F)c4F)cc23)CC1
UNITS_SYMBOL: %
inhibition: -1.84
--
MOLECULE: CCn1c(-c2nonc2N)nc2cncc(C(=O)NCCNC)c21
UNITS_SYMBOL: %
inhibition: 7.16
--
MOLECULE: COC(=O)Nc1nc2ccc(Oc3ccc(NC(=O)Nc4cc(C(F)(F)F)ccc4F)cc3)cc2s1
UNITS_SYMBOL: %
inhibition: 88.4
--
MOLECULE: COc1cc2c(cc1Nc1nc(Nc3cccc(F)c3C(N)=O)c3cc[nH]c3n1)N(C(=O)CN1CCN(C(C)C)CC1)CC2
UNITS_SYMBOL: %
inhibition: 5.75
--
MOLECULE: Fc1ccc(Nc2nccc(-c3c(-c4ccc(C(F)(F)F)cc4)nn4ncccc34)n2)cc1F
UNITS_SYMBOL: %
inhibition: 6.84
--
MOLECULE: N#Cc1ccc2c(-c3ccnc(NC4CC4)n3)c(-c3ccc(F)cc3)nn2c1
UNITS_SYMBOL: %
inhibition: 8.1

Q) What value of inhibition has been recorded for this entry: "c1ccc(-c2n[nH]cc2-c2ccnc(-c3ccc(OCCn4ccnc4)cc3)c2)nc1"
A) 9.49

Q) What value of inhibition has been recorded for this entry: CC1=C(C(=O)Nc2ccc3[nH]nc(C)c3c2)C(c2ccc(C(F)(F)F)cc2)CC(=O)N1 (stereo not drawn)
A) 44.2

Q) What value of inhibition has been recorded for this entry: "CCS(=O)(=O)c1ccc(OC)c(Nc2ncc(-c3cccc(F)c3)o2)c1"
A) 56.6

Q) What value of inhibition has been recorded for this entry: "CNC(=O)c1ncccc1Nc1nc(Nc2cc3c(cc2OC)CCCN3C(=O)CN(C)C)nc2[nH]ccc12"
A) 9.1

Q) What value of inhibition has been recorded for this entry: "COc1ccc(-c2nn3ncccc3c2-c2ccnc(Nc3ccc(F)c(F)c3)n2)cc1"
A) 18.1

Q) What value of inhibition has been recorded for this entry: "Cn1c(-c2nonc2N)nc2cnccc21"
A) 4.58

Q) What value of inhibition has been recorded for this entry: "CS(=O)(=O)Nc1ccc(-c2cc(-c3ccccc3)cc(C(N)=O)c2N)cc1"
A) 2.84
